Each recorded value in this set is attributed to patent US12180139B2.

- Test system: B. subtilis (+)
- Test: Antibacterial MIC test (CLSI)
- Assay type: cell-based
- Settings: MHB liquid medium, 37° C., 24 hours
Endpoint Label: MIC B. subtilis (+)

Field: example entries. Status: answers known.
CCCCC(NC)C(=O)Nc1ccc(-c2ccc(Cl)c(Cl)c2)cc1.Cl (racemic): <4 µg/mL
CCC(NC)C(=O)Nc1ccc(-c2ccc(Cl)c(Cl)c2)cc1.Cl (racemic): 8 µg/mL
CCCC(NC)C(=O)NCCc1ccc(-c2ccc(Cl)c(Cl)c2)cc1.Cl (racemic): 16 µg/mL

For B. subtilis (+), give the measured MIC B. subtilis (+) of the entry CCC(NC)C(=O)NCCc1ccc(-c2ccc(C(F)(F)F)cc2)cc1.Cl (racemic)
32 µg/mL

For B. subtilis (+), give the measured MIC B. subtilis (+) of the entry CCC(N)C(=O)NCCc1ccc(-c2ccc(C(F)(F)F)cc2)cc1.Cl (racemic)
16 µg/mL

For B. subtilis (+), give the measured MIC B. subtilis (+) of the entry CCCC(NC)C(=O)NCc1ccc(-c2ccc(Cl)c(Cl)c2)cc1.Cl (racemic)
16 µg/mL

====

- Tested on: C. neoformans
- Settings: RPMI1640 broth, 35° C., 72 hours, visual reading; expressed as a range value
The molecules listed here are annotated with their MIC (μg/mL) C. neoformans.

Please report MIC (μg/mL) C. neoformans for the following molecule: CCCC(NC)C(=O)NCc1ccc(-c2ccc(Cl)c(Cl)c2)cc1.Cl (racemic) [Compound 51]
2~8 μg/mL

Please report MIC (μg/mL) C. neoformans for the following molecule: CCCC(NC)C(=O)NCCc1ccc(-c2ccc(C(F)(F)F)cc2)cc1.Cl (racemic) [Compound 87]
4~16 μg/mL

Please report MIC (μg/mL) C. neoformans for the following molecule: CCC(N)C(=O)Nc1ccc(-c2ccc(Cl)c(Cl)c2)cc1.Cl (racemic) [Compound 29]
2~8 μg/mL

Please report MIC (μg/mL) C. neoformans for the following molecule: CCCC(N)C(=O)NCCc1ccc(-c2ccc(OC(F)(F)F)cc2)cc1.Cl (racemic) [Compound 80]
2~8 μg/mL

Please report MIC (μg/mL) C. neoformans for the following molecule: CCC(NC)C(=O)NCCc1ccc(-c2ccc(C(F)(F)F)cc2)cc1.Cl (racemic) [Compound 86]
8~32 μg/mL

Please report MIC (μg/mL) C. neoformans for the following molecule: CCCC(NC)C(=O)NCCc1ccc(-c2ccc(OC(F)(F)F)cc2)cc1.Cl (racemic) [Compound 90]
4~16 μg/mL

====

The compounds listed here are annotated with their MIC B. cereus (+).
- Test system: B. cereus (+)
- Test: Antibacterial MIC test (CLSI)
- Assay type: cell-based
- Settings: MHB liquid medium, 37° C., 24 hours

Field: example entries. Status: answers known.
CCCCC(N)C(=O)Nc1ccc(-c2ccc(Cl)c(Cl)c2)cc1.Cl (racemic) [Compound 31]: <4 µg/mL
CCCCC(NC)C(=O)Nc1ccc(-c2ccc(Cl)c(Cl)c2)cc1.Cl (racemic) [Compound 35]: <4 µg/mL

Here is the next item to consider.
Please report MIC B. cereus (+) for the following compound: CCCCC(NC)C(=O)NCCc1ccc(-c2ccc(C(F)(F)F)cc2)cc1.Cl (racemic) [Compound 88]
>64 µg/mL

====

- Tested on: S. aureus (+)
- Settings: MHB liquid medium, 37° C., 24 hours
The compounds listed here are annotated with their MIC S. aureus (+).

Please report MIC S. aureus (+) for the following compound: CCCC(NC)C(=O)Nc1ccc(-c2ccc(Cl)c(Cl)c2)cc1.Cl (racemic) [Compound 34]
<4 µg/mL

Please report MIC S. aureus (+) for the following compound: CCC(N)C(=O)Nc1ccc(-c2ccc(Cl)c(Cl)c2)cc1.Cl (racemic) [Compound 29]
<4 µg/mL

Please report MIC S. aureus (+) for the following compound: CCCCC(N)C(=O)Nc1ccc(-c2ccc(Cl)c(Cl)c2)cc1.Cl (racemic) [Compound 31]
<4 µg/mL

====

The molecules listed here are annotated with their MIC B. subtilis (+).
- System: B. subtilis (+)
- Test: Antibacterial MIC test (CLSI)
- Assay type: cell-based
- Settings: MHB liquid medium, 37° C., 24 hours

Please report MIC B. subtilis (+) for the following molecule: CCCCC(N)C(=O)NCCc1ccc(-c2ccc(C(F)(F)F)cc2)cc1.Cl (racemic)
<4 µg/mL

Please report MIC B. subtilis (+) for the following molecule: CCCCC(N)C(=O)NCCc1ccc(-c2ccc(OC(F)(F)F)cc2)cc1.Cl (racemic)
4 µg/mL

Please report MIC B. subtilis (+) for the following molecule: CCn1cc(C(=O)O)c(=O)c2cc(F)c(N3CCNCC3)cc21 [Nofloxacin, reference compound]
<0.125 µg/mL

Please report MIC B. subtilis (+) for the following molecule: CCCC(NC)C(=O)Nc1ccc(-c2ccc(Cl)c(Cl)c2)cc1.Cl (racemic)
<4 µg/mL

====

- System: C. neoformans
- Settings: RPMI1640 broth, 35° C., 72 hours, visual reading; expressed as a range value
Endpoint Label: MIC (μg/mL) C. neoformans

CCC(NC)C(=O)Nc1ccc(-c2ccc(Cl)c(Cl)c2)cc1.Cl (racemic): 4~16 μg/mL
CCCCC(N)C(=O)NCCc1ccc(-c2ccc(Cl)c(Cl)c2)cc1.Cl (racemic): 0.5~4 μg/mL
CCCCC(N)C(=O)Nc1ccc(-c2ccc(Cl)c(Cl)c2)cc1.Cl (racemic): 0.5~4 μg/mL

For C. neoformans, give the measured MIC (μg/mL) C. neoformans of the entry CCC(N)C(=O)NCCc1ccc(-c2ccc(OC(F)(F)F)cc2)cc1.Cl (racemic)
8~32 μg/mL

For C. neoformans, give the measured MIC (μg/mL) C. neoformans of the entry CCCC(NC)C(=O)NCc1ccc(-c2ccc(C(F)(F)F)cc2)cc1.Cl (racemic)
4~16 μg/mL

For C. neoformans, give the measured MIC (μg/mL) C. neoformans of the entry CCCC(C(=O)Nc1ccc(-c2ccc(Cl)c(Cl)c2)cc1)N(C)C (racemic)
2~8 μg/mL

For C. neoformans, give the measured MIC (μg/mL) C. neoformans of the entry CCCCC(N)C(=O)NCc1ccc(-c2ccc(Cl)c(Cl)c2)cc1.Cl (racemic)
0.5~4 μg/mL

For C. neoformans, give the measured MIC (μg/mL) C. neoformans of the entry CCC(N)C(=O)NCCc1ccc(-c2ccc(Cl)c(Cl)c2)cc1.Cl (racemic)
2~8 μg/mL

For C. neoformans, give the measured MIC (μg/mL) C. neoformans of the entry CCCC(N)C(=O)Nc1ccc(-c2ccc(OC(F)(F)F)cc2)cc1.Cl (racemic)
2~8 μg/mL

For C. neoformans, give the measured MIC (μg/mL) C. neoformans of the entry CCCC(N)C(=O)NCCc1ccc(-c2ccc(F)c(F)c2)cc1.Cl (racemic)
4~16 μg/mL

For C. neoformans, give the measured MIC (μg/mL) C. neoformans of the entry CCCC(NC)C(=O)Nc1ccc(-c2ccc(Cl)c(Cl)c2)cc1.Cl (racemic)
2~8 μg/mL

For C. neoformans, give the measured MIC (μg/mL) C. neoformans of the entry CCC(NC)C(=O)NCCc1ccc(-c2ccc(OC(F)(F)F)cc2)cc1.Cl (racemic)
8~32 μg/mL

For C. neoformans, give the measured MIC (μg/mL) C. neoformans of the entry CCCC(N)C(=O)NCc1ccc(-c2ccc(OC(F)(F)F)cc2)cc1.Cl (racemic)
4~16 μg/mL

For C. neoformans, give the measured MIC (μg/mL) C. neoformans of the entry CCCC(N)C(=O)NCc1ccc(-c2ccc(C(F)(F)F)cc2)cc1.Cl (racemic)
4~16 μg/mL

For C. neoformans, give the measured MIC (μg/mL) C. neoformans of the entry CCC(NC)C(=O)NCCc1ccc(-c2ccc(Cl)c(Cl)c2)cc1.Cl (racemic)
2~8 μg/mL

For C. neoformans, give the measured MIC (μg/mL) C. neoformans of the entry CCC(N)C(=O)NCCc1ccc(-c2ccc(C(F)(F)F)cc2)cc1.Cl (racemic)
8~32 μg/mL

For C. neoformans, give the measured MIC (μg/mL) C. neoformans of the entry CCCC(C(=O)NCCc1ccc(-c2ccc(Cl)c(Cl)c2)cc1)N(C)C (racemic)
4~16 μg/mL

For C. neoformans, give the measured MIC (μg/mL) C. neoformans of the entry CCCC(C(=O)NCc1ccc(-c2ccc(Cl)c(Cl)c2)cc1)N(C)C (racemic)
2~8 μg/mL

For C. neoformans, give the measured MIC (μg/mL) C. neoformans of the entry CCCC(N)C(=O)NCCc1ccc(-c2ccc(C(F)(F)F)cc2)cc1.Cl (racemic)
4~16 μg/mL

For C. neoformans, give the measured MIC (μg/mL) C. neoformans of the entry CCCC(N)C(=O)Nc1ccc(-c2ccc(Cl)c(Cl)c2)cc1.Cl (racemic)
2~8 μg/mL

For C. neoformans, give the measured MIC (μg/mL) C. neoformans of the entry C[C@@H]1[C@H](O)[C@@H](C)/C=C/C=C/C=C/C=C/C=C/C=C/C=C/[C@H](O[C@@H]2O[C@H](C)[C@@H](O)[C@H](N)[C@@H]2O)C[C@@H]2O[C@](O)(C[C@@H](O)C[C@@H](O)[C@H](O)CC[C@@H](O)C[C@@H](O)CC(=O)O[C@H]1C)C[C@H](O)[C@H]2C(=O)O [ABM, amphotericin B, reference compound]
0.25 µg/mL

For C. neoformans, give the measured MIC (μg/mL) C. neoformans of the entry CCCCC(N)C(=O)NCCc1ccc(-c2ccc(OC(F)(F)F)cc2)cc1.Cl (racemic)
2~8 μg/mL

For C. neoformans, give the measured MIC (μg/mL) C. neoformans of the entry CCCCC(NC)C(=O)Nc1ccc(-c2ccc(Cl)c(Cl)c2)cc1.Cl (racemic)
0.5~4 μg/mL

For C. neoformans, give the measured MIC (μg/mL) C. neoformans of the entry CCCCC(NC)C(=O)NCCc1ccc(-c2ccc(C(F)(F)F)cc2)cc1.Cl (racemic)
2~8 μg/mL
